# Test system: OVCAR-5 ovarian
# PROTOCOL TEXT: NCI tumour cell line growth inhibition, 48 h
PARAMETER MEASURED: TGI

Below, 4 molecules whose answers are already recorded.
- MOLECULE: "COc1cc2c(cc1OC)[C@@H]([C@H](O)c1ccccc1)NCC2"
  TGI: "> 100 µM"
- MOLECULE: "CN(C)c1ccc(C(=C2C=CC(=[N+](C)C)C=C2)c2ccccc2Cl)cc1"
  TGI: "1.48 µM"
- MOLECULE: "Cn1c(=O)c2nc(NCCO)cnc2n(C)c1=O"
  TGI: "> 100 µM"
- MOLECULE: "CC(=O)c1cccc(NC(=O)c2ccc(NC3=C(Cl)C(=O)N(Cc4ccccc4)C3=O)cc2)c1"
  TGI: "> 100 µM"

Query: Give the observed TGI of COc1cc(C2C3=C(COC3=O)Nc3cc4c(cc32)OCO4)cc2c1OCO2 (stereo not drawn) for OVCAR-5 ovarian.
Response: > 100 µM

Query: Give the observed TGI of `Cc1ccc(S(=O)(=O)SCc2ccccc2)cc1` for OVCAR-5 ovarian.
Response: > 100 µM

Query: Give the observed TGI of `CC1(C)N=C(N)N=C(N)N1c1ccc(Cl)c(Cl)c1` for OVCAR-5 ovarian.
Response: > 100 µM

Query: Give the observed TGI of `CC/C(CC(=O)CCC(=O)Nc1ccc(C)c(C)c1)=N\NC(=O)C(N)=O` for OVCAR-5 ovarian.
Response: > 100 µM

Query: Give the observed TGI of `CN=C(NC)N(C)c1nc(=[N+](C)C)ss1` for OVCAR-5 ovarian.
Response: > 100 µM

Query: Give the observed TGI of `COCn1c(C)c(C)c2c(=O)oc(C)nc21` for OVCAR-5 ovarian.
Response: > 100 µM

Query: Give the observed TGI of `Cc1ccc2c(CC(=O)O)cc(=O)oc2c1` for OVCAR-5 ovarian.
Response: > 100 µM

Query: Give the observed TGI of `O=C1Nc2ccccc2/C1=C\c1c(Cl)nc2n1CCS2` for OVCAR-5 ovarian.
Response: > 100 µM

Query: Give the observed TGI of `Cc1ccc(C)c(COCCOCn2c(=O)[nH]c(=O)c3cc(Br)ccc32)c1` for OVCAR-5 ovarian.
Response: > 100 µM
